System: HCC-2998 colon
method_notes: NCI-60 one-dose screen, 48 h
condition_summary: 10 µM unless noted
The panel holds about 83,000 compounds, 20% with a hit somewhere; the sample as a whole holds those more often. Activity calls are given as the source filed them. How the source made its calls: active means growth percent below 10; inactive means the rest.
One label from this list, please: active, inactive

Known results for molecules:
molecule	answer_label
O=C(N/N=C/[C@H](O)[C@@H](O)[C@@H](O)[C@H](O)CO)c1ccc(NC(=O)c2cccnc2)cc1	inactive
COc1cc(CNS(=O)(=O)c2ccc(C)cc2)ccc1OCc1cn(-c2ccccc2)nn1	inactive
CN1CCN(CC(=O)N2c3cccc4cccc(c34)N(C(=O)CN3CCN(C)CC3)C2c2cn(-c3ccccc3)nc2-c2cccc([N+](=O)[O-])c2)CC1	active
CCc1ccc(Oc2c(-c3ccc(OCc4ccc(Cl)cc4)cc3O)n[nH]c2C(F)(F)F)cc1	inactive
O=C1CCC(C(=O)NCCNCCNC(=O)C2CCC(=O)N2)N1 (stereo not given)	inactive

Q) Tell me the recorded outcome of this test for "Cc1ccc(S(=O)(=O)Oc2ccc(NC(=O)c3ccc(Cl)cc3)cc2)cc1" .
A) inactive

Q) Tell me the recorded outcome of this test for "COc1cccc(Oc2ccccc2NC(=O)CNC(=O)c2cccc3ccccc23)c1" .
A) inactive

Q) Tell me the recorded outcome of this test for NC1=NC(c2cccc(Br)c2)c2sc3ccc(Cl)cc3c2N1 (stereo not given) .
A) inactive

Q) Tell me the recorded outcome of this test for "CNc1ccc(Nc2cccc(C)c2)c2c1C(=O)c1ccccc1C2=O" .
A) inactive

====

Tested on: ACHN renal
method_notes: NCI-60 one-dose screen, 48 h (100 = growth as untreated, 0 = no growth, -100 = all killed)
condition_summary: 10 µM unless noted
About 83,000 compounds went through this panel and 20% of them were active in at least one assay; those are over-represented in the sample as a whole.
// label = Criterion met if growth is not less than 60%, otherwise Criterion not met

Known results for molecules:
> print(dat)
                                   molecule       answer.label
1  NCCCNc1nc2ccccc2c2c(=O)c3cc(F)cc(Cl)c3sc12      Criterion met
2  Cc1ccc(NC2=C(Cl)C(=O)c3nc(C)ccc3C2=O)cc1  Criterion not met
3  COc1ccc(-c2nnc(COc3ccc(Cl)cc3Cl)o2)cc1OC  Criterion not met
4  O=C(O)c1cn(C2CC2)c2cc(N3CCN(C(=O)Nc4nc(-c5ccccc5)cs4)CC3)c(F)cc2c1=O  Criterion not met
5  CCCCNc1nc(NN2C(=O)c3cccc4cccc(c34)C2=O)nc(-n2cnc3ccccc32)n1      Criterion met
6  NCCCNc1nc2ccccc2c2c(=O)c3cc(F)cc(F)c3sc12  Criterion not met

Q) Please check the record "CCCCNC(=O)Oc1ccc(/C(=C(\C)c2ccc(Cl)cc2)c2ccc(OCCN(CC)CC)cc2)cc1" and state if its growth is at or above 60%.
A) Criterion met

====

growth reference
System: SK-MEL-28 melanoma
method_notes: NCI-60 one-dose screen, 48 h (100 = growth as untreated, 0 = no growth, -100 = all killed)
condition_summary: 10 µM unless noted
The panel holds about 83,000 compounds, 20% with a hit somewhere; the sample as a whole holds those more often.
All answers are understood in %, so give the number only.

molecule	growth / %
NC1=NC(c2cccc(Br)c2)c2sc3ccc(Cl)cc3c2N1 (stereo unspecified)	118

Q) Suppose we examine the molecule "CN1CCN(c2ccc(-c3cc4c(Nc5ccc(F)c(Cl)c5)ncnn4c3)cc2)CC1" ; what growth value has been reported?
A) 71.5

Q) Suppose we examine the molecule CC(=O)OC[C@H]1OC(Sc2sc(C(=O)c3ccc(C)cc3)c(N)c2-c2nc3ccccc3s2)[C@H](OC(C)=O)[C@@H](OC(C)=O)[C@@H]1OC(C)=O (stereo partly specified) ; what growth value has been reported?
A) 76.4

Q) Suppose we examine the molecule "Cc1ccc(C(C)C)cc1C(=O)C[n+]1ccccc1" ; what growth value has been reported?
A) 97.3

Q) Suppose we examine the molecule "O=C(/C=C/c1sc(Cl)nc1Cl)c1ccc(Br)cc1" ; what growth value has been reported?
A) 100

Q) Suppose we examine the molecule O=C1CCC(C(=O)NCCNCCNC(=O)C2CCC(=O)N2)N1 (stereo unspecified) ; what growth value has been reported?
A) 112

Q) Suppose we examine the molecule "Cc1ccc2nc(NC(=O)CSc3nc(Cl)c(C#N)c(-c4ccccc4)n3)sc2c1" ; what growth value has been reported?
A) 103
